target-of-assay: EML4-ALK (L1196M)-BaF3 (Homo sapiens, UniProt Q9UM73, L1196M)
Construct: expressed in transfected cells; host or cells: Ba/F3 cells; the other entry of the earlier key: EML4 (Q9HC35, Echinoderm microtubule-associated protein-like 4)
run-description: Growth inhibition of EML4-ALK (L1196M) transformed BaF3 cells (MTS)
Format: cell-based
measurement-context: 48 hours, Table 11, read-out: EML4-ALK (L1196M) (IC50 nM)
Recorded IC50 split into classes class 1 (below 1000 nM), class 2 (1000 nM to below 4000 nM), class 3 (4000 nM or more)

INSERT INTO results (compound, label_value) VALUES
  ('COC(=O)c1ccccc1Nc1nc(Nc2ccc(OCc3ccccn3)cc2)nc2cc[nH]c12 [IG-8]', 'class 2'),
  ('COc1cc(N2CCN(C)CC2)ccc1Nc1nc(Nc2ccccc2S(=O)(=O)C(C)C)c2[nH]ccc2n1 [ID-1]', 'class 1'),
  ('COC(=O)c1ccccc1Nc1nc(Nc2ccc(N3CCOCC3)cc2OC)nc2cc[nH]c12 [IG-16]', 'class 2'),
  ('CSc1ccccc1CNc1nc(Nc2ccc(S(N)(=O)=O)cc2)nc2cc[nH]c12 [IL-4]', 'class 3'),
  ('COC(=O)c1ccccc1Oc1nc(Nc2ccc(N3CCC(O)CC3)cc2)nc2cc[nH]c12 [IV-3]', 'class 3'),
  ('CNc1nc(Nc2ccc(N3CCC(O)CC3)cc2)nc2cc[nH]c12 [IQ-3]', 'class 3'),
  ('CCNc1nc(Nc2ccc(N3CCC(N4CCN(C)CC4)CC3)cc2OC)nc2cc[nH]c12 [IR-2]', 'class 3'),
  ('CCOc1cc(N2CCC(O)CC2)ccc1Nc1nc(Nc2ccccc2C(=O)OC)c2[nH]ccc2n1 [IG-10]', 'class 3'),
  ('CC(C)S(=O)(=O)c1ccccc1CNc1nc(Nc2ccc(N3CCN(C)CC3)cc2)nc2cc[nH]c12 [IO-5]', 'class 3'),
  ('COC(=O)c1cccc(Nc2nc(Nc3ccc(N4CCOCC4)cc3)nc3cc[nH]c23)c1 [II-5]', 'class 1'),
  ('COC(=O)c1ccccc1Nc1nc(Nc2ccc(N3CCC(O)CC3)cc2)nc2cc[nH]c12 [IG-3]', 'class 3'),
  ('COC(=O)c1ccccc1Nc1nc(Nc2ccc(N3CCC(O)CC3)cc2OC(C)C)nc2cc[nH]c12 [IG-9]', 'class 3'),
  ('OC1CCN(c2ccc(Nc3nc(NC4CC4)c4[nH]ccc4n3)cc2)CC1 [IS-3]', 'class 3'),
  ('COC(=O)c1sccc1Nc1nc(Nc2ccc(N3CCN(C)CC3)cc2OC)nc2cc[nH]c12 [IK-1]', 'class 2'),
  ('CC(C)Sc1ccccc1CNc1nc(Nc2ccc(N3CCC(O)CC3)cc2)nc2cc[nH]c12 [IM-2]', 'class 2'),
  ('CSc1ccccc1CNc1nc(Nc2ccc(N3CCC(O)CC3)cc2)nc2cc[nH]c12 [IL-3]', 'class 3'),
  ('CNc1nc(Nc2ccc(C(=O)N3CCN(C)CC3)cc2OC)nc2cc[nH]c12 [IQ-6]', 'class 3'),
  ('CC(C)S(=O)(=O)c1ccccc1CNc1nc(Nc2ccc(N3CCC(O)CC3)cc2)nc2cc[nH]c12 [IO-3]', 'class 3'),
  ('COc1cc(N2CCC(N3CCN(C)CC3)CC2)ccc1Nc1nc(NCc2ccccc2SC)c2[nH]ccc2n1 [IL-2]', 'class 2'),
  ('CCC(C)OC(=O)c1ccccc1Nc1nc(Nc2ccc(N3CCN(C)CC3)cc2OC)nc2cc[nH]c12 (stereo not drawn) [IH-1]', 'class 1'),
  ('COc1cc(N2CCN(C)CC2)ccc1Nc1nc(NCc2ccccc2S(C)(=O)=O)c2[nH]ccc2n1 [IN-1]', 'class 3'),
  ('CS(=O)(=O)c1ccccc1Nc1nc(Nc2ccc(N3CCC(O)CC3)cc2)nc2cc[nH]c12 [IC-3]', 'class 3'),
  ('COc1cc(N2CCC(N3CCN(C)CC3)CC2)ccc1Nc1nc(NCc2ccccc2S(C)(=O)=O)c2[nH]ccc2n1 [IN-2]', 'class 3'),
  ('CCC(C)OC(=O)c1ccccc1Nc1nc(Nc2ccc(N3CCC(N4CCN(C)CC4)CC3)cc2OC)nc2cc[nH]c12 (stereo not drawn) [IH-3]', 'class 1'),
  ('COc1cc(N2CCC(N3CCN(C)CC3)CC2)ccc1Nc1nc(Nc2ccccc2S(=O)(=O)C(C)C)c2[nH]ccc2n1 [ID-3]', 'class 1'),
  ('CC(C)Sc1ccccc1Nc1nc(Nc2ccc(N3CCC(O)CC3)cc2)nc2cc[nH]c12 [IB-2]', 'class 2'),
  ('COC(=O)c1ccccc1Nc1nc(Nc2ccc(N3CCC(O)CC3)nc2)nc2cc[nH]c12 [IG-18]', 'class 3'),
  ('COc1cc(N2CCN(C)CC2)ccc1Nc1nc(NC2CC2)c2[nH]ccc2n1 [IS-1]', 'class 2');
